test system: Key Grass and Sedge Weeds as well as Grass Crops; assay: Post-emergent Test II herbicidal activity (Table 16); assay type: in vivo; conditions: Zea mays, post-emergence, 336 h, maize, corn (Zea mays), 35 g ai/ha, 14 d, read-out: Visual Growth Reduction (%) 14 Days After Application, ZEAMX
Some molecules, each annotated with its measured pest or weed control at 35 g/ha.

Would you please look over these solved cases?
[[record]]
molecule = "COC(=O)c1nc(-c2ccc3cc[nH]c3c2)nc(N)c1OC"
quantity = "pest or weed control at 35 g/ha"
measured_value = "0 to 29%"

[[record]]
molecule = "COC(=O)c1nc(-c2cccc3occc23)c(F)c(N)c1Cl"
quantity = "pest or weed control at 35 g/ha"
measured_value = "95 to 100%"

[[record]]
molecule = "Nc1c(F)c(-c2ccc3occc3c2)nc(C(=O)O)c1Cl"
quantity = "pest or weed control at 35 g/ha"
measured_value = "95 to 100%"


### Prompt # pest or weed control at 35 g/ha lookup, item COC(=O)c1nc(-c2cc3ccoc3cc2F)nc(N)c1OC
### Response 0 to 29%

### Prompt Next up: COC(=O)c1nc(-c2ccc3ccoc3c2F)cc(N)c1Cl
### Response 45 to 59%

====

tested on: Wheat and Barley and test plant species; experiment: Post-emergent Test III, herbicidal activity in wheat and barley (Table 17; visual injury, GR20/GR50/GR80/GR90); type: in vivo; conditions: KCHSC; dose for 50 percent growth reduction; probit analysis; 21 d
Some compounds, each annotated with its measured GR50, KCHSC.
State just the number; it will be interpreted in g ai/ha.

Would you please look over these solved cases?
[[record]]
compound = "Nc1c(F)c(-c2ccc3cc[nH]c3c2F)nc(C(=O)O)c1Cl [Compound 1.16]"
measured_value = 7

[[record]]
compound = "COC(=O)c1nc(-c2ccc(Cl)c3ccoc23)c(F)c(N)c1Cl [Compound 2.24]"
measured_value = 4


### Prompt # GR50, KCHSC lookup, item COC(=O)c1nc(-c2ccc3cc[nH]c3c2F)cc(N)c1Cl [Compound 1.23]
### Response 35

### Prompt Next up: COC(=O)c1nc(-c2ccc3cc[nH]c3c2F)c(F)c(N)c1Cl [Compound 1.15]
### Response 6

====

Some compounds, each annotated with its measured pest or weed control at 35 g/ha.
tested on: Key Broadleaf Weed and Crop Species; assay: Post-emergent Test II herbicidal activity (Table 15); assay type: in vivo; conditions: Helianthus annuus, post-emergence, 336 h, sunflower (Helianthus annuus), 35 g ai/ha, 14 d, read-out: Visual Growth Reduction (%) 14 Days After Application, HELAN

Would you please look over these solved cases?
[[record]]
compound = "COc1c(N)nc(-c2ccc3sccc3c2)nc1C(=O)O [Compound 3.09]"
quantity = "pest or weed control at 35 g/ha"
measured_value = "60 to 74%"

[[record]]
compound = "COC(=O)c1nc(-c2cccc3c2cnn3C)c(F)c(N)c1Cl [Compound 4.10]"
quantity = "pest or weed control at 35 g/ha"
measured_value = "0 to 29%"

[[record]]
compound = "COC(=O)c1nc(-c2ccc(Cl)c3occc23)nc(N)c1Cl [Compound 2.20]"
quantity = "pest or weed control at 35 g/ha"
measured_value = "85 to 94%"


We next turn to a different compound, shown below.
### Prompt # pest or weed control at 35 g/ha lookup, item C=Cc1c(C(=O)O)nc(-c2ccc3cc[nH]c3c2F)c(F)c1N [Compound 1.19]
### Response 60 to 74%
